System: U2OS
Test: Multiplex assay against U2OS
Type: toxicity, cell-based
Conditions: human, 24 h, 1 µM, compound concentration 1 uM, replicate 2
METRIC NAME: Population Apoptotic (%)
Express the result in % but write the number alone.

Nc1ccc(C(=O)Nc2cccc(-c3nc(N4CCOCC4)c4oc5ncccc5c4n3)c2)cn1 : 21
CCn1c(-c2nonc2N)nc2cnc(Oc3cccc(NC(=O)c4ccc(OCCN5CCOCC5)cc4)c3)cc21 [GSK-269962A] : 75
CN(C)C/C=C/C(=O)Nc1cc2c(Nc3ccc(F)c(Cl)c3)ncnc2cc1O[C@H]1CCOC1.O=C(O)/C=C\C(=O)O.O=C(O)/C=C\C(=O)O [AFATINIB DIMALEATE] : 75
CNc1oc(-c2cccc3ccccc23)nc1C#N : 25
CC(C)(C)c1cnc(CSc2cnc(NC(=O)C3CCNCC3)s2)o1 : 55

**Q:** Given c1ccc2oc(-c3csc(C4CCN(Cc5nc6ncccc6[nH]5)CC4)n3)cc2c1 , state its recorded Population Apoptotic (%).
**A:** 25

**Q:** Which Population Apoptotic (%) value belongs to CN(C)CCOc1ccc(-c2nc(-c3ccncc3)c(-c3ccc4c(c3)CC/C4=N\O)[nH]2)cc1 ?
**A:** 91

**Q:** So what does the record say about Population Apoptotic (%) for CNC(=O)c1cc(Oc2ccc(NC(=O)Nc3cc(C(C)(C)C)nn3-c3ccc4ncccc4c3)c(F)c2)ccn1 ?
**A:** 44

---

Tested on: HEK-293T
Experiment: Multiplex assay against HEK293T
Format: toxicity, cell-based
Conditions: human, 24 h, 10 µM, compound concentration 10 uM, replicate 2
METRIC NAME: Population Apoptotic (%)
Numbers only; they are read as %.

As a guide, the following entries are already answered.
CCc1cc2c(cc1CC)CC(NC[C@H](O)c1ccc(O)c3[nH]c(=O)ccc13)C2 [INDACATEROL] : 95
CCC(=O)O[C@]1(C(=O)SCF)[C@H](C)C[C@H]2[C@@H]3C[C@H](F)C4=CC(=O)C=C[C@]4(C)[C@@]3(F)[C@@H](O)C[C@@]21C [FLUTICASONE PROPIONATE] : 44

**Q:** // lookup Population Apoptotic (%) for c1ccc2oc(-c3csc(C4CCN(Cc5nc6ncccc6[nH]5)CC4)n3)cc2c1
**A:** 5

**Q:** Given the compound COc1cc2c(NC3CCN(C(C)C)CC3)nc(N3CCC(F)(F)CC3)nc2cc1OCCCN1CCCC1 , what is its reported Population Apoptotic (%)?
**A:** 95

---

System: Fibroblast
Test: Multiplex assay against human fibroblast
Format: toxicity, cell-based
Conditions: 12 h, 1 µM, compound concentration 1 uM, replicate 1
METRIC NAME: Population Mitochondria Different-Phenotype (%)

Examples with answers:
CNC(=O)c1cc(Oc2ccc(NC(=O)Nc3cc(C(C)(C)C)nn3-c3ccc4ncccc4c3)c(F)c2)ccn1 [REBASTINIB] : 2%
Cl.Cl.Nc1ncnc2c1c(-c1cccc(OCc3ccccc3)c1)cn2[C@H]1C[C@@H](CN2CCC2)C1 : 9%
CCc1cc2c(cc1CC)CC(NC[C@H](O)c1ccc(O)c3[nH]c(=O)ccc13)C2 [INDACATEROL] : 10%

**Q:** Reported Population Mitochondria Different-Phenotype (%) for CC(C)(C)c1cnc(CSc2cnc(NC(=O)C3CCNCC3)s2)o1 [BMS-387032] : what is it?
**A:** 10%

**Q:** Form field: reported Population Mitochondria Different-Phenotype (%) of CC(=O)c1cc(-c2cc(C(=O)NC3CC3)ccc2C)c2ncccn12
**A:** 3%

**Q:** Fill in: Population Mitochondria Different-Phenotype (%) of COc1cc2c(Nc3ccc(NC(=O)c4ccccc4)cc3)ncnc2cc1OCCCN1CCOCC1 is ___
**A:** 10%

**Q:** What does the data say about its Population Mitochondria Different-Phenotype (%)? Entry: CC(C)Oc1ccc(C(=O)N[C@H](CNC(=O)CN(C)C)Cc2ccc(-c3cn4cccc([C@H](C)O)c4n3)cc2)cc1Cl [GSK-923295A]
**A:** 5%

**Q:** Which Population Mitochondria Different-Phenotype (%) value is on record for Cc1cn(-c2cc(NC(=O)c3ccc4c(c3)CN(c3cncnc3)C[C@@H]4C)cc(C(F)(F)F)c2)cn1 ?
**A:** 4%

---

System: Fibroblast
Assay: Multiplex assay against human fibroblast
Assay type: toxicity, cell-based
Settings: 48 h, 10 µM, compound concentration 10 uM, replicate 1
METRIC NAME: Population Mitotic Cells (%)
Hi! Could you send only the number? It should be in %, unit omitted.

Worked examples, 7 compounds total:
O=C(O)c1ccc2cc(-c3ccc(O)c(C45CC6CC(CC(C6)C4)C5)c3)ccc2c1 : 14
CCCn1c(=O)c2[nH]c(C34CC5CC(CC3C5)C4)nc2n(CCC)c1=O : 37
CCC(=O)O[C@]1(C(=O)SCF)[C@H](C)C[C@H]2[C@@H]3C[C@H](F)C4=CC(=O)C=C[C@]4(C)[C@@]3(F)[C@@H](O)C[C@@]21C [FLUTICASONE PROPIONATE] : 25
COc1cc2c(NC3CCN(C(C)C)CC3)nc(N3CCC(F)(F)CC3)nc2cc1OCCCN1CCCC1 : 62
CC(C)Oc1ccc(C(=O)N[C@H](CNC(=O)CN(C)C)Cc2ccc(-c3cn4cccc([C@H](C)O)c4n3)cc2)cc1Cl [GSK-923295A] : 28
Cc1nc(Cc2cccc(C(F)(F)F)c2)sc1-c1ccc(C(N)=O)nc1 [TP-024n] : 22
CC(=O)c1cc(-c2cc(C(=O)NC3CC3)ccc2C)c2ncccn12 : 47

# context switch: different compound, same Population Mitotic Cells (%)
**Q:** Quick one: Population Mitotic Cells (%) of COc1cc(N2CCC(N(C)C)CC2)ccc1Nc1ncc(Cl)c(Nc2ccccc2P(C)(C)=O)n1 ?
**A:** 12

---

Test system: Fibroblast
Experiment: Multiplex assay against human fibroblast
Type: toxicity, cell-based
Conditions: 24 h, 10 µM, compound concentration 10 uM, replicate 1
Documented Population Normal (%) across a set of molecules
Give the number first and the unit second.

**Q:** Please give the measured Population Normal (%) for this molecule: CCOc1cc(N2CCC(O)CC2)ccc1Nc1ncc2c(n1)N(C1CCCC1)CCC(=O)N2C
**A:** 80%

**Q:** Any idea what its Population Normal (%) is? The molecule is O=C(O)c1ccc2cc(-c3ccc(O)c(C45CC6CC(CC(C6)C4)C5)c3)ccc2c1
**A:** 78%

**Q:** Param item = COc1cc(N2CCC(N(C)C)CC2)ccc1Nc1ncc(Cl)c(Nc2ccccc2P(C)(C)=O)n1 ; retrieve measured Population Normal (%).
**A:** 86%

**Q:** GET /values?readout=Population Normal (%)&item= Cc1cc2c(cc1N1C(=O)c3cccc4c(CCCO)ccc(c34)C1=O)n(C)c(=O)n2C
**A:** 84%

**Q:** What value of Population Normal (%) has been reported for the following molecule? CC(C)N1CCC(C)(C)c2cc(C#Cc3ccc(C(=O)O)cc3)ccc21
**A:** 21%

---

Quick list: Population Mitotic Cells (%) per entry.
Tested on: U2OS
Assay: Multiplex assay against U2OS
Type: toxicity, cell-based
Settings: human, 12 h, 10 µM, compound concentration 10 uM, replicate 1
Note: unit % is implicit; provide only the numeric part.

CC(C)N1CCC(C)(C)c2cc(C#Cc3ccc(C(=O)O)cc3)ccc21 : 40
Cl.Cl.NC1(c2ccc(-c3nc4ccn5c(=O)[nH]nc5c4cc3-c3ccccc3)cc2)CCC1 : 77

**Q:** Fill in: Population Mitotic Cells (%) of O=C(O)c1ccc2cc(-c3ccc(O)c(C45CC6CC(CC(C6)C4)C5)c3)ccc2c1 [O-DEMETHYLATED ADAPALENE] is ___
**A:** 33

**Q:** Need Population Mitotic Cells (%) of CNC(=O)c1cc(Oc2ccc(NC(=O)Nc3cc(C(C)(C)C)nn3-c3ccc4ncccc4c3)c(F)c2)ccn1 [REBASTINIB] , thanks.
**A:** 50

**Q:** Give the measured Population Mitotic Cells (%) of Cc1cn(-c2cc(NC(=O)c3ccc4c(c3)CN(c3cncnc3)C[C@@H]4C)cc(C(F)(F)F)c2)cn1 .
**A:** 66

**Q:** Return reported Population Mitotic Cells (%); argument: COc1cc2c(NC3CCN(C(C)C)CC3)nc(N3CCC(F)(F)CC3)nc2cc1OCCCN1CCCC1
**A:** 31

**Q:** Fill in the blank: the reported Population Mitotic Cells (%) of N#Cc1cnc(Nc2cc(NC[C@H]3CNCCO3)c(C(F)(F)F)cn2)cn1 [SRA-737] is ____.
**A:** 50

**Q:** // query Population Mitotic Cells (%) value for entry CNc1oc(-c2cccc3ccccc23)nc1C#N
**A:** 13

**Q:** // Population Mitotic Cells (%) lookup, key: CCOc1cc2ncc(C#N)c(Nc3ccc(OCc4cccc(F)c4)c(Cl)c3)c2cc1NC(=O)/C=C/CN(C)C [HKI-357]
**A:** 43
